Values compiled from patent US20240368151A1.

Molecular target: 5-HT1A receptor (Homo sapiens (Human), UniProt P08908)
Assay: FLIPR Ca^2+ flux agonist assay at 5-HT1A
Type: cell-based
Settings: CHO cells
Description: Functional Assays at 5-HT2A, 5-HT2B, and 5-HT1A. Agonist activity at 5-HT2A, 5-HT2B, and 5-HT1A receptors was determined using a FLIPR Ca^2+ flux assay at WuXi AppTec (Hong Kong) Limited according to their standard protocols. […] 10p L of references and compounds were then transferred from the compound plate into the cell plate and the fluorescent signal was read.
experimental_readout: 5-HT1A % Act @ Max Dose (%)
Please reply with the bare figure in % and do not write the unit itself.

5-HT1A % Act @ Max Dose recorded for this compound, `C[C@H]1C[C@H](C)N1C(=O)[C@@H]1C=C2c3cccc4[nH]cc(c34)C[C@H]2N(C)C1` , is 89.9

5-HT1A % Act @ Max Dose recorded for this compound, `CCN(CC)C(=O)[C@@H]1C=C2c3cccc4[nH]cc(c34)C[C@H]2N(CCC(F)(F)F)C1` , is 71.42

5-HT1A % Act @ Max Dose recorded for this compound, `C=CCN1C[C@H](C(=O)N[C@H](C)CC)C=C2c3cccc4[nH]cc(c34)C[C@H]21` , is 116.41

5-HT1A % Act @ Max Dose recorded for this compound, `CCN(CC)C(=O)[C@@H]1C=C2c3cccc4[nH]cc(c34)C[C@H]2N(Cc2cccc(OC)c2)C1` , is 28.93

5-HT1A % Act @ Max Dose recorded for this compound, `CCN(CC)C(=O)[C@@H]1C=C2c3cccc4[nH]cc(c34)C[C@H]2N(Cc2ccccn2)C1` , is 57.33

5-HT1A % Act @ Max Dose recorded for this compound, `CCN(CC)C(=O)[C@@H]1C=C2c3cccc4[nH]cc(c34)C[C@H]2N(CCc2ccccn2)C1` , is 46.19

5-HT1A % Act @ Max Dose recorded for this compound, `CCN(CC)C(=O)[C@@H]1C=C2c3cccc4[nH]cc(c34)C[C@H]2N(CCc2ccc(OC)cc2)C1` , is 8.2

====

Give D1 % Act @ Max Dose for every item shown.
Target: D1 receptor (Homo sapiens (Human))
Sequence (P21728 whole entry, looked up): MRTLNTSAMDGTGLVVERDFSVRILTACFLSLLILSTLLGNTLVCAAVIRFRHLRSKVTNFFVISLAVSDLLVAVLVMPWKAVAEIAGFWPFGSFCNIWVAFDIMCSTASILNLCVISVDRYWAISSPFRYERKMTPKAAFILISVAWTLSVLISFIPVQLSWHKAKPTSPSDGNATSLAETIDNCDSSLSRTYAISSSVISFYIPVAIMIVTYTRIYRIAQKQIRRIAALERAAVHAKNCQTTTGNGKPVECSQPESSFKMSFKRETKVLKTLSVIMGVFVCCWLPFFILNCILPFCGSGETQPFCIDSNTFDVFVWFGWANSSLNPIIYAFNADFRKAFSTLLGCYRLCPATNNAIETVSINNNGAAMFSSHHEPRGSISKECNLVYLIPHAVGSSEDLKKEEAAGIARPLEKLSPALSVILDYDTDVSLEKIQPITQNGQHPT
Test: FLIPR Ca^2+ flux agonist assay at D1
Assay type: cell-based
Please reply with the bare figure in % and do not write the unit itself.

D1 % Act @ Max Dose recorded for this compound, `CCCN1C[C@H](C(=O)N[C@H](C)CC)C=C2c3cccc4[nH]cc(c34)C[C@H]21` , is 121.3

D1 % Act @ Max Dose recorded for this compound, `CCN(CC)C(=O)[C@@H]1C=C2c3cccc4[nH]cc(c34)C[C@H]2N(CCc2ccccc2OC)C1` , is 90.9

D1 % Act @ Max Dose recorded for this compound, `CCN(CC)C(=O)[C@@H]1C=C2c3cccc4[nH]cc(c34)C[C@H]2N(CCCF)C1` , is 113.6

D1 % Act @ Max Dose recorded for this compound, `CCN(CC)C(=O)[C@@H]1C=C2c3cccc4[nH]cc(c34)C[C@H]2N(Cc2ccccc2OC)C1` , is 114.19

D1 % Act @ Max Dose recorded for this compound, `CCCN1C[C@H](C(=O)N2[C@@H](C)C[C@@H]2C)C=C2c3cccc4[nH]cc(c34)C[C@H]21` , is 113.6

D1 % Act @ Max Dose recorded for this compound, `CCCN1C[C@H](C(=O)N(CC)CC)C=C2c3cccc4[nH]cc(c34)C[C@H]21` , is 108.68

D1 % Act @ Max Dose recorded for this compound, CCN(CC)C(=O)[C@@H]1C=C2c3cccc4[nH]cc(c34)C[C@H]2N(C)C1 [LSD, lysergic acid diethylamide, reference compound] , is 94.9

D1 % Act @ Max Dose recorded for this compound, `CCCN1C[C@H](C(=O)NC(CC)CC)C=C2c3cccc4[nH]cc(c34)C[C@H]21` , is 93.13
